- study_target: Mitogen-activated protein kinase 1 (Homo sapiens)
- Sequence (P28482 whole entry): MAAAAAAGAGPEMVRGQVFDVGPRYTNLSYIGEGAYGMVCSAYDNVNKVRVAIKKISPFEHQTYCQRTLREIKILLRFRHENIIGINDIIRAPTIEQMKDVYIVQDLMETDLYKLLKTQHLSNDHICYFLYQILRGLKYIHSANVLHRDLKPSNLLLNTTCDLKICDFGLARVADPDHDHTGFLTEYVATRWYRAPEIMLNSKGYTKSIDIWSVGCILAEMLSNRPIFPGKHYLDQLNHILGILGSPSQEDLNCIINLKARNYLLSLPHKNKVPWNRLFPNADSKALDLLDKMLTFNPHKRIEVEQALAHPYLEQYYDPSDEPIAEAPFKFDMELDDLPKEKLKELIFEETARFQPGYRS
- measurement_description: IMAP-FP Assay: Activated ERK2 activity was determined in an IMAP-FP assay (Molecular Devices).
result_type: pIC50
In simple prose, pIC50 is minus the logarithm base ten of a concentration in moles per litre.

So, `COC(=O)Nc1n[nH]c2cc(NC(=O)N[C@H](C)c3ccc(Cl)c(OC)c3)ncc12` ? Its pIC50 was 8.28
